Entry source: patent US20240270821A1

Biological target: hGIPR (Homo sapiens, UniProt P48546)
Sequence (P48546 22-466): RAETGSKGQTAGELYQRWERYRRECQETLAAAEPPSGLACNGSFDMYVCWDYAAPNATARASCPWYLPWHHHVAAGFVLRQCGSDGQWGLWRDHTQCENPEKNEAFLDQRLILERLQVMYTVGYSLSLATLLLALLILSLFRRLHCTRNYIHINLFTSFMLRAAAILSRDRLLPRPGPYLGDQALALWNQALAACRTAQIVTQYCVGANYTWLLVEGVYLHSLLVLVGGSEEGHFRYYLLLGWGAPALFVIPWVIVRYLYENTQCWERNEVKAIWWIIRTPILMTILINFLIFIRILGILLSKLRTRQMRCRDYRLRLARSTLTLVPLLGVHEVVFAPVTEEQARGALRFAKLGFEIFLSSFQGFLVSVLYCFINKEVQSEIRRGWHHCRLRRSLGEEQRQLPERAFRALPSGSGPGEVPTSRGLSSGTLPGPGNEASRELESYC
Experiment: Functional cAMP activity in the presence of 1% HSA
Assay type: cell-based
Details: read-out: cAMP Rel EC50, hGIPR
pEC50: −log10 of the molar value. Starred links: 1 amine or outer side, 2 acyl side, 3 side chain; linkers in the order of their positions; H or OH if unused. Non-standard residues stand in square brackets, D forms with d. Groups on a side chain read outwards from the residue. No end group written: not given here. *: point of attachment. C20 diacid = O=C(O)CCCCCCCCCCCCCCCCCCC(=O)*; C18 diacid = O=C(O)CCCCCCCCCCCCCCCCC(=O)*; αMePhe(2-F) = C[C@](N)(Cc1ccccc1F)C(=O)O; γGlu = O=C(O)[C@H](CCC(=O)[*:2])N[*:1]; αMe4Pal = C[C@](N)(Cc1ccncc1)C(=O)O; αMeY = C[C@](N)(Cc1ccc(O)cc1)C(=O)O; 4Pal = N[C@@H](Cc1ccncc1)C(=O)O; αMeL = CC(C)C[C@](C)(N)C(=O)O; αMeS = C[C@](N)(CO)C(=O)O; Orn = NCCC[C@H](N)C(=O)O; AEEA = NCCOCCOCC(=O)O; Aib = CC(C)(N)C(=O)O
Decide by pEC50: equal to or exceeding 8 means t, less means f.

Would you please look over these solved cases?
H-Y[Aib]QGT[αMePhe(2-F)]TSD[4Pal]SI[αMeL]LD[Orn]K([γGlu-γGlu-C18 diacid])AQ[αMe4Pal]EFI[dE][αMeY]LQEGGPSSGEPPPSGS-NH2 [Example 649]: t
H-Y[Aib]QGTFTSD[4Pal]SR[αMeL]LDKK([γGlu-γGlu-C18 diacid])AQ[αMe4Pal]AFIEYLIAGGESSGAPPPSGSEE-NH2 [Example 965]: f
H-Y[Aib]QGTFTSDFSK[αMeL]LDKK([AEEA-γGlu-C20 diacid])AQ[Aib]AFIEWLLAGGPSSGEPPPSGE-NH2 [Example 21]: f
H-Y[Aib]QGT[αMePhe(2-F)]TSD[4Pal][αMeS]I[αMeL]LD[Orn]K([AEEA-γGlu-C18 diacid])AQ[αMe4Pal]EFI[dE][αMeY]LVEGGPSSGAPPPESE-NH2 [Example 1156]: t
Y[Aib]QGT[αMePhe(2-F)]TSD[4Pal][αMeS]I[αMeL]LD[Orn]K([γGlu-γGlu-C18 diacid])AQ[Aib][Orn]FI[dE]YLIEGGPSSGEPPPSGTE-NH2 [Example 521]: t

hey, is pEC50 for this one >= 8? H-Y[Aib]QGTFTSD[4Pal]SQ[αMeL]LD[Orn]K([dE-γGlu-C18 diacid])AQ[αMe4Pal]AFIQ[αMeY]LIA[Aib]GPSSGEPPPSGGGE-NH2 [Example 1130] t

Likewise for H-Y[Aib]QGT[αMePhe(2-F)]TSD[4Pal][αMeS]ILLD[Orn]K([γGlu-γGlu-C18 diacid])AQ[Aib][Orn]FI[dE]YLIEGGPSSGEPPPEGAEE-NH2 [Example 604] ? t

Next entry: H-Y[Aib]QGTFTSD[4Pal]S[Orn][αMeL]LDKK([γGlu-γGlu-C18 diacid])AQ[αMe4Pal]AFIE[αMeY]LIAGGPSSGEPPPSGS-NH2 [Example 1014] t
